Numbers sourced from patent US11155567B2.

Molecular target: R232 hSTING variant (Homo sapiens, UniProt Q86WV6, H232R)
Sequence (Q86WV6 whole entry H232R): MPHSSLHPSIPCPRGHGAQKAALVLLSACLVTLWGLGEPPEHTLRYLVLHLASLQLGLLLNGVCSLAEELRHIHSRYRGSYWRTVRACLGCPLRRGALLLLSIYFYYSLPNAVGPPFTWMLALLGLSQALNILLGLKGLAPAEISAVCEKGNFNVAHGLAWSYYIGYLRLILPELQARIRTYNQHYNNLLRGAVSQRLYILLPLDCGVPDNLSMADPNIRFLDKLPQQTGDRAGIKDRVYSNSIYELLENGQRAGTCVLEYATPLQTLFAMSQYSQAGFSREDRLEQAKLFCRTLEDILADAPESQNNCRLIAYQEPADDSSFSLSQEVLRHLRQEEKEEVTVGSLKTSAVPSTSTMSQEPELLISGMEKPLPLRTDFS
Assay: IRF3 reporter induction in THP1-Dual KI-hSTING-R232 Cells
Conditions: THP1-Dual KI-hSTING-R232 Cells (R232 Haplotype)
parameter: EC50

Some solved cases for reference:
CCc1nc(C)oc1C(=O)/N=c1\sc2cc(C(N)=O)cnc2n1C/C=C/Cn1c(NC(=O)c2oc(C)nc2CC)nc2cc(C(N)=O)cc(OCCCO)c21 < 0.03 µM
CCc1nc(C)oc1C(=O)/N=c1\sc2nc(C(N)=O)cnc2n1C/C=C/Cn1c(NC(=O)c2oc(C)nc2CC)nc2cc(C(N)=O)cc(OCCCO)c21 0.03 to 0.1 µM
CCc1nc(C)oc1C(=O)Nc1nc2cc(C(N)=O)cc(OC)c2n1C/C=C/Cn1c(NC(=O)c2oc(C)nc2CC)nc2cc(C(N)=O)cc(OCCCO)c21 < 0.03 µM
CCc1nc(C)oc1C(=O)/N=c1\sc2cc(C(N)=O)cc(OC)c2n1C/C=C/Cn1c(NC(=O)c2oc(C)nc2CC)nc2cc(C(N)=O)cc(OCCCC(=O)O)c21 < 0.03 µM
CCc1nc(C)oc1C(=O)/N=c1\sc2cc(C(N)=O)cc(OC)c2n1C/C=C/Cn1c(NC(=O)c2oc(C)nc2CC)nc2cc(C(N)=O)cc(OCCCO)c21 < 0.03 µM

Attention now turns to another entry.
Asked: // lookup EC50 for CCc1nc(C)oc1C(=O)/N=c1\sc2cc(C(N)=O)cc(OCCCO)c2n1C/C=C/Cn1c(NC(=O)c2cc(C)nn2CC)nc2cc(C(N)=O)cnc21
Given back: < 0.03 µM

----------
Target: R232 hSTING variant (Homo sapiens, UniProt Q86WV6, H232R)
Experiment: IRF3 reporter induction in THP1-Dual KI-hSTING-R232 Cells
Settings: THP1-Dual KI-hSTING-R232 Cells (R232 Haplotype)
parameter: EC50

Some solved cases for reference:
CCc1nc(C)oc1C(=O)/N=c1\sc2cc(C(N)=O)cc(OCCCO)c2n1C/C=C/Cn1c(NC(=O)c2oc(C)nc2CC)nc2cc(C(N)=O)cnc21 < 30 nM
CCc1nc(C)oc1C(=O)Nc1nc2cc(C(N)=O)cnc2n1C/C=C/Cn1c(NC(=O)c2oc(C)nc2CC)nc2cc(C(N)=O)cc(OCCCO)c21 < 30 nM

Attention now turns to another entry.
Asked: // lookup EC50 for CCc1nc(C)oc1C(=O)Nc1nc2cc(C(N)=O)cc(OCCCO)c2n1C/C=C/Cn1/c(=N/C(=O)c2cc(C)nn2CC)sc2cc(C(N)=O)cc(OC)c21
Given back: < 30 nM

----------
Each entry below lists one item and its recorded EC50 value.
Biological target: Human STING (Homo sapiens, UniProt Q86WV6, G230A/H232R/R293Q/R71H)
Sequence (Q86WV6 whole entry R71H/G230A/H232R/R293Q): as the sequence (Q86WV6 whole entry H232R) above, with R71H, G230A, R293Q counted along it
Test: Activation of human STING signaling in permeabilized THP1 cells, IRF3 induction
Conditions: THP1-Dual cells permeabilized with digitonin buffer 30 minutes on ice, then 24 h in RPMI media

Asked: // lookup EC50 for CCc1nc(C)oc1C(=O)Nc1nc2cc(C(N)=O)cc(OC)c2n1C/C=C/Cn1c(NC(=O)c2cnco2)nc2cc(C(N)=O)cc(OCCCO)c21
Given back: ≥ 50000 nM

Asked: // lookup EC50 for CCn1nc(C)cc1C(=O)/N=c1\sc2cc(C(N)=O)cc(OCCCO)c2n1C/C=C/Cn1c(NC(=O)c2cc(C)nn2CC)nc2cc(C(N)=O)cnc21
Given back: 1000 to 50000 nM

Asked: // lookup EC50 for CCn1nc(C)cc1C(=O)/N=c1\sc2cc(C(N)=O)cc(OC)c2n1C/C=C/Cn1c(NC(=O)C2=C(C)OCC2)nc2cc(C(N)=O)cc(OCCCO)c21
Given back: ≥ 50000 nM

Asked: // lookup EC50 for CCc1nc(C)oc1C(=O)Nc1nc2cc(C(N)=O)cc(OCCCC(=O)O)c2n1C/C=C/Cn1/c(=N/C(=O)c2cc(C)nn2CC)sc2cc(C(N)=O)cc(OC)c21
Given back: < 1000 nM

Asked: // lookup EC50 for CCc1nc(C)oc1C(=O)Nc1nc2cc(C(N)=O)cc(OC)c2n1C/C=C/Cn1c(NC(=O)c2sc(C)nc2CC)nc2cc(C(N)=O)cc(OCCCC(=O)O)c21
Given back: < 1000 nM

Asked: // lookup EC50 for CCc1nc(C)oc1C(=O)Nc1nc2cc(CN(C)C)cc(OC)c2n1C/C=C/Cn1c(NC(=O)c2oc(C)nc2CC)nc2cc(C(N)=O)cc(OCCCO)c21
Given back: 1000 to 50000 nM

Asked: // lookup EC50 for CCn1nc(C)cc1C(=O)Nc1nc2cc(C(N)=O)cnc2n1C/C=C/Cn1c(NC(=O)c2cc(C)nn2CC)nc2cc(C(N)=O)cc(OCCCC(=O)O)c21
Given back: < 1000 nM

Asked: // lookup EC50 for CCc1nc(C)sc1C(=O)Nc1nc2cc(C(N)=O)cnc2n1C/C=C/Cn1c(NC(=O)c2sc(C)nc2CC)nc2cc(C(N)=O)cc(OCCCO)c21
Given back: ≥ 50000 nM

Asked: // lookup EC50 for CCc1nc(C)oc1C(=O)/N=c1\sc2cc(C(N)=O)cnc2n1C/C=C/Cn1c(NC(=O)c2sc(C)nc2CC)nc2cc(C(N)=O)cc(OCCCO)c21
Given back: < 1000 nM

Asked: // lookup EC50 for CCn1nc(C)cc1C(=O)/N=c1\sc2cc(C(N)=O)cc(OC)c2n1C/C=C/Cn1c(NC(=O)c2cc(C)nn2CC)nc2cc(C(N)=O)cc(OCCCN)c21
Given back: < 1000 nM

Asked: // lookup EC50 for CCc1nc(C)oc1C(=O)Nc1nc2cc(C(N)=O)cnc2n1C/C=C/Cn1c(NC(=O)c2oc(C)nc2CC)nc2cc(C(N)=O)cc(OCCCN)c21
Given back: < 1000 nM

----------
Target: Human STING (Homo sapiens, UniProt Q86WV6, G230A/H232R/R293Q/R71H)
Test: Activation of human STING signaling in permeabilized THP1 cells, IRF3 induction
Details: THP1-Dual cells permeabilized with digitonin buffer 30 minutes on ice, then 24 h in RPMI media
pEC50: −log10 of the molar value.
parameter: pEC50

Some solved cases for reference:
CCc1nc(C)oc1C(=O)Nc1nc2cc(C(N)=O)cc(OCCCO)c2n1C/C=C/Cn1c(NC(=O)c2sc(C)nc2CC)nc2cc(C(N)=O)cc(OC)c21 > 6.00
CCc1nc(C)oc1C(=O)/N=c1\sc2cc(C(N)=O)cnc2n1C/C=C/Cn1c(NC(=O)c2oc(C)nc2CC)nc2cc(C(N)=O)cc(OCCCO)c21 > 6.00
CCc1nc(C)oc1C(=O)/N=c1\sc2cc(C(N)=O)cnc2n1C/C=C/Cn1c(NC(=O)c2oc(C)nc2CC)nc2cc(C(N)=O)cc(OCCCC(=O)O)c21 > 6.00

Asked: // lookup pEC50 for CCn1nc(C)cc1C(=O)Nc1nc2cccnc2n1C/C=C/Cn1c(NC(=O)c2cc(C)nn2CC)nc2cc(C(N)=O)cc(OCCCO)c21
Given back: 4.30 to 6.00

Asked: // lookup pEC50 for CCc1nc(C)oc1C(=O)Nc1nc2cc(C(N)=O)cc(O)c2n1C/C=C/Cn1c(NC(=O)c2oc(C)nc2CC)nc2cc(C(N)=O)cc(O)c21
Given back: ≤ 4.30
